tested on: SW-620 colon; test: NCI tumour cell line growth inhibition, 48 h; in the data active means GI50 below about 0.43 µM; inactive means the rest
Outcomes: label 1 (active), label 0 (inactive)

{"molecule": "CCOC(=O)c1c(NC(=O)COc2cccc3cccnc23)sc(C(=O)N(C)C)c1C", "classAssignment": "label 0"}
{"molecule": "COc1cc(CN[C@H]2CCc3cc(OC)c(OC)c(OC)c3-c3ccc(SC)c(=O)cc32)cc(OC)c1", "classAssignment": "label 1"}
{"molecule": "O=C1C(Cl)=C(Nc2cccc(O)c2)C(=O)N1CCc1ccccc1", "classAssignment": "label 0"}
{"molecule": "CC1OC(OC2C(O)C(OCCc3ccc(O)c(O)c3)OC(CO)C2OC(=O)/C=C/c2ccc(O)c(O)c2)C(O)C(O)C1OC1OCC(O)(CO)C1O (stereo not drawn)", "classAssignment": "label 0"}
{"molecule": "COc1cc(/C=C/C(=O)c2ccc(Nc3nc(Nc4ccc(F)cc4)nc(Nc4ccc(Cl)cc4)n3)cc2)cc(OC)c1OC", "classAssignment": "label 0"}
{"molecule": "CCOC(=O)/C=C/C1=C(c2ccsc2)c2ccc(OC)cc2CC1", "classAssignment": "label 1"}
{"molecule": "O=C1NC(=O)/C(=C/c2c(Cl)nc3sccn23)S1", "classAssignment": "label 0"}
{"molecule": "COC(=O)[C@@H](C)C[C@H](Cc1ccccc1)NC(=O)c1cccc([C@@H](C[C@H](C(C)C)N(C)C(=O)[C@@H](NC(=O)[C@H]2CCCCN2C)C2CC2)OC(C)=O)n1", "classAssignment": "label 1"}
{"molecule": "COc1ncc(-c2ccc3nccc(C#CCCCCC(=O)O)c3c2)cc1NS(=O)(=O)c1ccc(F)cc1F", "classAssignment": "label 0"}
{"molecule": "CCOC(=O)Cc1csc(NC(=O)COC(=O)c2ccc(N)cc2)n1", "classAssignment": "label 0"}
{"molecule": "O=C(Nc1ccc(-n2cc(-c3ccncc3)c(-c3ccc(O)c(Cl)c3)n2)cc1)c1cc(C(F)(F)F)cc(C(F)(F)F)c1", "classAssignment": "label 0"}
{"molecule": "Brc1ccc(SCN(CSc2ccc(Br)cc2)Cc2ccccc2)cc1", "classAssignment": "label 0"}
{"molecule": "Nc1ccccc1C#C/C=C\\C#Cc1cnccn1", "classAssignment": "label 0"}
{"molecule": "CCCSc1ccc2nc(NC(=O)OC)[nH]c2c1", "classAssignment": "label 1"}
{"molecule": "CN(C)c1ccc(Nc2ncnc3ccccc23)cc1", "classAssignment": "label 0"}
{"molecule": "CC1(C)CCC2(CC1)N[C@@H](C(=O)N[C@@H]1CC[C@@H](C(N)=O)OC1)[C@H](c1ccnc(Cl)c1F)[C@]21C(=O)Nc2cc(Cl)ccc21", "classAssignment": "label 0"}
{"molecule": "COC(=O)C1=C(OC(=O)c2ccccc2)C(C(=O)OC)[C@]2(O)[C@@H](C(=O)OC)C1CC(c1ccccc1OC)[C@@H]2C(=O)OC (stereo partly drawn)", "classAssignment": "label 0"}
{"molecule": "CNC(=O)C(CCc1ccccc1)NC(=O)C(CC(=O)NO)CC(C)C (stereo not drawn)", "classAssignment": "label 0"}
